Data provenance: patent US20230131899A1

experimental.system: E. coli CsgA (Escherichia coli, UniProt P28307)
Construct: made in house; host or cells: E. coli NEB 3016 slyD::kan, pET11d
Sequence (P28307 23-151): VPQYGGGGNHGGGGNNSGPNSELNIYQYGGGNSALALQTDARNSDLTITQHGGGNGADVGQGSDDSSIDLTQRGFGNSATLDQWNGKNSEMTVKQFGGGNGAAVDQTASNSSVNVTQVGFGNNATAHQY
test.protocol: In vitro ThioflavinT assay of CsgA aggregation (CsgA ThT Assay)
Type: biochemical
experimental.setup: read-out: CsgA ThT Assay (2 μM CsgA) % Control Bmax 25 μM, mean Bmax as percentage of DMSO control; CsgA 2 μM, white plates; compound 25 μM
Known remaining activity at 25 µM of a selection of molecules
Your answer is read as %, so omit the unit and give the number.

Worked examples, 6 molecules total:
{"columns": ["molecule", "experimental.system", "scale.unit", "endpoint.result"],
 "data": [
  ["CN1CC(C(=O)O)n2c1c(-c1cccc(C(F)(F)F)c1)c(C(F)(F)c1cccc3ccccc13)cc2=O (stereo not shown)", "E. coli CsgA (Escherichia coli, UniProt P28307)", "%", 88],
  ["CCCN1CC(C(=O)O)n2c1c(-c1cccc(C(F)(F)F)c1)c(Cc1cccc3ccccc13)c(Cl)c2=O (stereo not shown)", "E. coli CsgA (Escherichia coli, UniProt P28307)", "%", 34],
  ["O=C(O)C1CN(CC2CCOCC2)c2c(-c3cccc(C(F)(F)F)c3)c(Cc3cccc4ccccc34)c(Cl)c(=O)n21 (stereo not shown)", "E. coli CsgA (Escherichia coli, UniProt P28307)", "%", 68],
  ["CN1CC(C(=O)O)n2c(c(-c3cccc(C(F)(F)F)c3)c(Cc3cccc4ccccc34)c(C(=O)N3CCOCC3)c2=O)S1(=O)=O (stereo not shown)", "E. coli CsgA (Escherichia coli, UniProt P28307)", "%", 101],
  ["O=C(O)C1CN(Cc2ccccc2)c2c(-c3cccc(C(F)(F)F)c3)c(Cc3cccc4ccccc34)cc(=O)n21 (stereo not shown)", "E. coli CsgA (Escherichia coli, UniProt P28307)", "%", 69],
  ["O=C(O)C1CN(CCCCCO)c2c(-c3cccc(C(F)(F)F)c3)c(Cc3cccc4ccccc34)c(Cl)c(=O)n21 (stereo not shown)", "E. coli CsgA (Escherichia coli, UniProt P28307)", "%", 83]
]}

Next molecule, please.
Incoming: State the recorded remaining activity at 25 µM for this entry: CCCN1CC(C(=O)O)n2c(c(-c3cccc(C(F)(F)F)c3)c(Cc3cccc4ccccc34)c(N3CCCC3=O)c2=O)S1(=O)=O (stereo not shown)
Outgoing: 67
